Origin of measurements: patent US4150146A

The entries below are paired with their reported s.c. Walker T.W.I.% (tumor weight inhibition).
Tested on: s.c. Walker carcinosarcoma
Assay: Chemotherapeutic activity against s.c. Walker carcinosarcoma (tumor weight inhibition)
Format: in vivo, rat (Sprague Dawley)
Conditions: 50% of the acute LD50 i.p.; treatment on day 4 after transplantation; T.W.I. on day 8; 10 Sprague Dawley rats per group
parameter: s.c. Walker T.W.I.% (tumor weight inhibition) (%)

# compound, test-result
data = [
    ("O=NN(CCCl)C(=O)NCCCCCNC(=O)N(CCCl)N=O", 68),
    ("O=NN(CCCl)C(=O)NCCCCO [Compound 8, 1-(4-hydroxybutyl)-CNU]", 4),
    ("O=NN(CCCl)C(=O)NCCCO [Compound 7, 1-(3-hydroxypropyl)-CNU]", 0),
    ("O=NN(CCCl)C(=O)NCCCCNC(=O)N(CCCl)N=O", 77),
    ("O=NN(CCCl)C(=O)NCCCCCCNC(=O)N(CCCl)N=O", 70),
    ("O=NN(CCCl)C(=O)NCCCl [BCNU, 1,3-bis-(2-chloroethyl)-1-nitroso urea, reference compound]", 83),
    ("O=NN(CCCl)C(=O)NCCNC(=O)N(CCCl)N=O", 75),
    ("O=NN(CCCl)C(=O)NCCCNC(=O)N(CCCl)N=O", 72),
    ("Cc1ccc(NC(=O)N(CCCl)N=O)cc1NC(=O)N(CCCl)N=O", 35),
    ("O=NN(CCCl)C(=O)NCCO", 85),
]
